- measured on: T1, ProQ (minimal ProQ, FinO domain with short N- and C-terminal extensions) (Neisseria meningitidis, UniProt Q9JY98 1-141)
- T1 sequence: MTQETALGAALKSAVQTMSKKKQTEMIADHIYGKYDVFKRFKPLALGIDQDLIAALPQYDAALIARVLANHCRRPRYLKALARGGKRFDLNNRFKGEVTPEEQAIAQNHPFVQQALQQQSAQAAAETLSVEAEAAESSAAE
- experimental protocol: EMSA; max bound 88%; 25 mM Tris pH 7.5, 150 mM NaCl, 5% glycerol, 1 mM MgCl2, 1 nM 32P-RNA, ProQ up to 50 nM, 30 min at room temperature; 6% native gel at 4 C
- applied conditions: protein: recombinant; tags: N-terminal His6-TEV, cleaved; one extra N-terminal Ser remains; label: 5'-32P; terminator hairpin, 9 nt 3' tail
pKd: −log10 of the molar value.
readout: pKd

>>> result_number("rpmG-U6AU2 (structured_RNA) RNA: GGGAUUUCAGUUUGAAAGCAAAGCCUCCGACUGUUCGGAGGCUUUUUUAUU")
9.66
